- Tested on: LXRa homodimer (NR concentration 270 nM)
- assayInfo: PBM binding z-score (relative to random genomic background probes); higher = stronger binding; sequences stand for … in GC…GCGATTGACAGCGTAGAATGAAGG
Label scheme for PBM binding z-score: lower than -0.2 is condition not met, -0.2 and above is condition met.

Ask: Is the recorded value of PBM binding z-score equal to or greater than -0.2 for this sequence? `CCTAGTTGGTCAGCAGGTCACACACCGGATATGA`
Result: condition met

Ask: Okay, and `CTCGAAAGGTCCGTTGAGGTGAGTATACGGATAA` ?
Result: condition not met

Ask: Okay, and `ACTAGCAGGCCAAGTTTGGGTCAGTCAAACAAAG` ?
Result: condition not met

Ask: Okay, and `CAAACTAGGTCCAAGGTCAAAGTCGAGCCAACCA` ?
Result: condition met

Ask: Okay, and `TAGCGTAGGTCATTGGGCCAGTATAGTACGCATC` ?
Result: condition met

Ask: Okay, and `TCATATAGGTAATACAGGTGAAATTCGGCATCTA` ?
Result: condition met

Ask: Okay, and `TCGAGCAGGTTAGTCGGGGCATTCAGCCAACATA` ?
Result: condition not met

Ask: Okay, and `CCAGACAGTTGAAAGGTAACTCAGTCTGGTACGC` ?
Result: condition not met

Ask: Okay, and `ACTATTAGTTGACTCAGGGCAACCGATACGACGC` ?
Result: condition met

Ask: Okay, and `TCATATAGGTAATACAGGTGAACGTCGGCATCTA` ?
Result: condition met

Ask: Okay, and `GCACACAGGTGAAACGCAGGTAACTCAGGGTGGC` ?
Result: condition not met

Ask: Okay, and `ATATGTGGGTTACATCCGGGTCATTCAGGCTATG` ?
Result: condition met

* * *

- Test system: PPARg:RXRa (NR concentration 180 nM, RXRa partner concentration 90 nM)
- assayInfo: PBM binding z-score (relative to random genomic background probes); higher = stronger binding; sequences stand for … in GC…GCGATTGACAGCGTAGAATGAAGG
Provide the reported PBM binding z-score of each item.
The reply should be a number, written without any unit.

Ask: Reported PBM binding z-score, sequence `AGAATGAGGTTAAGAGCAGGGAAACAGAATACAT` : ____
Result: 1.98

Ask: Okay, and `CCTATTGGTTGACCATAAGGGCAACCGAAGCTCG` ?
Result: 0.215

Ask: Okay, and `CCGACTGGGGAAGAAAGGTTACCATACCATCCGG` ?
Result: 1.84

Ask: Okay, and `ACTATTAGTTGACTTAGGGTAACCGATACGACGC` ?
Result: 0.907

Ask: Okay, and `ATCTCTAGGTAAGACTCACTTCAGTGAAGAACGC` ?
Result: 0.276

Ask: Okay, and `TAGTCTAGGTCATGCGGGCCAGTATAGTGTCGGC` ?
Result: 4.97

Ask: Okay, and `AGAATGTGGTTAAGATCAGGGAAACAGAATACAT` ?
Result: 0.496

Ask: Okay, and `ACTTACGGGTCAACGAGGCTATAGCACGCGTATA` ?
Result: 5.21

Ask: Okay, and `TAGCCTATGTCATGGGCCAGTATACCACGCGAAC` ?
Result: 0.56

Ask: Okay, and `GGAACGAGGGTAAAGTTGATAGCATCTGTCGACG` ?
Result: 5.63

Ask: Okay, and `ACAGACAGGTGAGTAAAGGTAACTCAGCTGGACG` ?
Result: 1.25

Ask: Okay, and `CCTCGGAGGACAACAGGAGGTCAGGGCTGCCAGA` ?
Result: 0.517

Ask: Okay, and `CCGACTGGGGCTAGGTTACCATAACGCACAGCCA` ?
Result: 0.784

Ask: Okay, and `TCTGCTAGGTCAGTTCGTCAGCTAACGAGCTGCC` ?
Result: 0.0243

Ask: Okay, and `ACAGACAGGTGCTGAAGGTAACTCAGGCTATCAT` ?
Result: 0.398

Ask: Okay, and `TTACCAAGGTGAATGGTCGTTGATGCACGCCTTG` ?
Result: 1.32

Ask: Okay, and `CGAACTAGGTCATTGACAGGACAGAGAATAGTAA` ?
Result: 7.41

Ask: Okay, and `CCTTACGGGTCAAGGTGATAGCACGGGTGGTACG` ?
Result: 4.43

Ask: Okay, and `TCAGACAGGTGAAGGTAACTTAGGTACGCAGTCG` ?
Result: 0.846

Ask: Okay, and `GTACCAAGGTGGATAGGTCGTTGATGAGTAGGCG` ?
Result: 0.422

Ask: Okay, and `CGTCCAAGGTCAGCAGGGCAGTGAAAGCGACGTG` ?
Result: 3.08

Ask: Okay, and `CTTACTGGGCCACGAAAGGTCATTGATTCAGTGA` ?
Result: 6.99

Ask: Okay, and `TCTTGTAGATCAGCAGGTTATGAAAGCTGGCCAA` ?
Result: -0.222

Ask: Okay, and `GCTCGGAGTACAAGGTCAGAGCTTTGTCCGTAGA` ?
Result: 0.501

Ask: Okay, and `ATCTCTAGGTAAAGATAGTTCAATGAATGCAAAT` ?
Result: 1.03

Ask: Okay, and `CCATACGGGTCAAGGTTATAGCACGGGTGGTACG` ?
Result: 4.87

Ask: Okay, and `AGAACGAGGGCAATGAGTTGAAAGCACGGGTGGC` ?
Result: 1.36

Ask: Okay, and `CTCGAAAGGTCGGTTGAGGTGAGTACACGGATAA` ?
Result: 0.546

Ask: Okay, and `ATCTCTAGGTAAAAGTTCACTGAATCCCGAGGAT` ?
Result: 8.64

Ask: Okay, and `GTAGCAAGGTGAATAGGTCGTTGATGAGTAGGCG` ?
Result: 0.986

Ask: Okay, and `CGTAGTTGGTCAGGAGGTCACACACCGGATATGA` ?
Result: 2.96

Ask: Okay, and `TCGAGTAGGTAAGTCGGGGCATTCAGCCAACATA` ?
Result: -0.3

Ask: Okay, and `TGAATGAGGGTATAAGATCAGGGAACGTTGCAAA` ?
Result: 0.576

Ask: Okay, and `CGAACTAGGTCAAGGACCGTGAATCTCCGCACGC` ?
Result: 7.76

Ask: Okay, and `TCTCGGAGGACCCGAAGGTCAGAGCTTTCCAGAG` ?
Result: 0.0649

Ask: Okay, and `CAAACTAGGGCAAGGTCAAAGTCGGTTTGTGCCA` ?
Result: 7.92

Ask: Okay, and `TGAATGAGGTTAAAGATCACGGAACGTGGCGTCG` ?
Result: 7.54

Ask: Okay, and `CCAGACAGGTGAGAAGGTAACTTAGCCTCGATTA` ?
Result: 0.351

Ask: Okay, and `TCTCGTAGGACACGAAAGGTCAGAGCTCGACATC` ?
Result: 1.24

Ask: Okay, and `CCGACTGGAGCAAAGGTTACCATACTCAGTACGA` ?
Result: 8.49

Ask: Okay, and `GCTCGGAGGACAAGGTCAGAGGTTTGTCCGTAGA` ?
Result: 1.75

Ask: Okay, and `CCTGCTAGGTCAATGGACAGCTAAAGCAGCTCGC` ?
Result: 1.63

Ask: Okay, and `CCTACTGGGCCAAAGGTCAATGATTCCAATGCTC` ?
Result: 12.1

Ask: Okay, and `CCTACTGGGCCAAGGTCATGGATCAGTCAAAGCA` ?
Result: 4.52

Ask: Okay, and `ATACCAAGGTGATCGTGAGGTCGTTGCTACTAAC` ?
Result: 0.201

Ask: Okay, and `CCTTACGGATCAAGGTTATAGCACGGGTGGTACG` ?
Result: 0.684

Ask: Okay, and `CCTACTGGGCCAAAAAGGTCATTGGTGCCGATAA` ?
Result: 3.1

Ask: Okay, and `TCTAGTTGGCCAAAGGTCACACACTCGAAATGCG` ?
Result: 11

Ask: Okay, and `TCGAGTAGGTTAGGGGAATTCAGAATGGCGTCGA` ?
Result: 0.159

Ask: Okay, and `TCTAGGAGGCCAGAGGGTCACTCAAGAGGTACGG` ?
Result: 1.87

Ask: Okay, and `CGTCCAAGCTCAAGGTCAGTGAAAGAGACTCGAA` ?
Result: 0.495

* * *

Provide the reported PBM binding z-score of each item.
- Test system: RARa:RXR (NR concentration 270 nM, RXRa partner concentration 90 nM)
- assayInfo: PBM binding z-score (relative to random genomic background probes); higher = stronger binding; sequences stand for … in GC…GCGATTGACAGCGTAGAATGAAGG
The reply should be a number, written without any unit.

Ask: Reported PBM binding z-score, sequence `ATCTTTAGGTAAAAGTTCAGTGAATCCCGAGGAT` : ____
Result: 1.56

Ask: Okay, and `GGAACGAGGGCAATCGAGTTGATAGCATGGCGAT` ?
Result: 0.677

Ask: Okay, and `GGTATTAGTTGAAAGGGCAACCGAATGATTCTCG` ?
Result: 1.88

Ask: Okay, and `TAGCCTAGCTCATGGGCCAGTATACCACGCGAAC` ?
Result: -0.584

Ask: Okay, and `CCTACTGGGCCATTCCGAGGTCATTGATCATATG` ?
Result: 3.88

Ask: Okay, and `CCTACTGGGCAACGAAAGGTCATTGATTCAGTGA` ?
Result: 5.49

Ask: Okay, and `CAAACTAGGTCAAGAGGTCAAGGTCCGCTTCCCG` ?
Result: 7.29

Ask: Okay, and `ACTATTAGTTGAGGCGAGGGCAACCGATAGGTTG` ?
Result: 0.644

Ask: Okay, and `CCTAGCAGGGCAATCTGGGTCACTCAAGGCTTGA` ?
Result: 1.89

Ask: Okay, and `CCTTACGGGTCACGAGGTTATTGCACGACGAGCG` ?
Result: 6.61

Ask: Okay, and `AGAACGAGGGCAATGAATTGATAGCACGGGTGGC` ?
Result: 0.568

Ask: Okay, and `CCTAGCAGGCCAGAGTCACTCAAGCATTTCGCTT` ?
Result: -0.507

Ask: Okay, and `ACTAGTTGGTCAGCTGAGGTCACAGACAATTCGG` ?
Result: 4.65

Ask: Okay, and `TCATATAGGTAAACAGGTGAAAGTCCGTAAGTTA` ?
Result: 1.3

Ask: Okay, and `GCTAGTTGGTCAGTAAAAGTTCACACACCGGTCG` ?
Result: 2.53

Ask: Okay, and `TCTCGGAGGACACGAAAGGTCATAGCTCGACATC` ?
Result: 5.39

Ask: Okay, and `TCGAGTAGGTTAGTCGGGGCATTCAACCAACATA` ?
Result: 0.545

Ask: Okay, and `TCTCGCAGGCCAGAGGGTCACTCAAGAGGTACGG` ?
Result: 2.25

Ask: Okay, and `CGAACTAGGTCAAGTACAGTGAATCTCCGCACGC` ?
Result: 2.37

Ask: Okay, and `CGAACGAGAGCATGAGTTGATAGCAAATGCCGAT` ?
Result: -0.442

Ask: Okay, and `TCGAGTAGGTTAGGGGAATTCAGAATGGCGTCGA` ?
Result: -0.0883

Ask: Okay, and `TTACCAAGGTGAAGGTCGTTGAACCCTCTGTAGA` ?
Result: 3.4

Ask: Okay, and `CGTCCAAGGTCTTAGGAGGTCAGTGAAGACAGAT` ?
Result: 2.15

Ask: Okay, and `TCTAGTAGATCAAAGGTTAAGAAAGCCGAAGCCT` ?
Result: 2.97

Ask: Okay, and `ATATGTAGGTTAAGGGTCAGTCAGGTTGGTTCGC` ?
Result: 4.53

Ask: Okay, and `CGAACGAGGGCATGAATTGATAGCAAATGCCGAT` ?
Result: 0.259
